Kindly find below pKi information for Free fatty acid receptor 1 (Homo sapiens, UniProt O14842) taken from the literature.
pKi: −log10 of the molar value.
Quantity kind: pKi

{"columns": ["Sample smiles", "pKi"],
 "data": [
  ["CC#C[C@@H](CC(=O)O)c1ccc(OCc2cc(-c3c(C)cc(OC)cc3C)c3nc(C(C)C)nn3c2)cc1", 7.80]
]}

(a) CC#C[C@@H](CC(=O)O)c1ccc(OCc2cc(-c3ccccc3C)cn3ncnc23)cc1
(b) CC#C[C@@H](CC(=O)O)c1ccc(OCc2ccc3nc(-c4c(C)cccc4C)nn3c2)cc1
INPUT: Could you determine which record has the numerically smaller pKi? Candidates: a and b Kindly state the label of the option you pick.
OUTPUT: a
